- EXPERIMENTAL DETAILS: Food and acidic beverage effect on bioavailability of ATR-101 tablets, 3-way crossover plasma PK study
- Type: in vivo, human
- MEASUREMENT CONTEXT: both sexes, human, plasma, po, 500 mg, Treatment A (fasting with water), single oral 500 mg; Median
Structures can show the parent of a compound that is named as a salt.
QUANTITY: half-life (h)
One number for each entry, in h.

# half-life (compound: CC(C)c1cccc(C(C)C)c1NC(=O)NCC1(c2ccc(N(C)C)cc2)CCCC1 [ATR-101, hydrochloride] ) is 18.2

====

- EXPERIMENTAL DETAILS: Food and acidic beverage effect on bioavailability of ATR-101 tablets, 3-way crossover plasma PK study
- Type: in vivo, human
- MEASUREMENT CONTEXT: both sexes, human, plasma, po, 500 mg, Treatment B (fed with water), single oral 500 mg; Mean; read-out: AUC0-t
Structures can show the parent of a compound that is named as a salt.
QUANTITY: AUC0-t (ng·h/mL)
Give bare numbers, in ng·h/mL.

# AUC0-t (compound: CC(C)c1cccc(C(C)C)c1NC(=O)NCC1(c2ccc(N(C)C)cc2)CCCC1 [ATR-101, hydrochloride] ) is 6560

====

- EXPERIMENTAL DETAILS: Food and acidic beverage effect on bioavailability of ATR-101 tablets, 3-way crossover plasma PK study
- Format: in vivo, human
- MEASUREMENT CONTEXT: both sexes, human, plasma, po, 500 mg, Treatment B (fed with water), single oral 500 mg; Median; read-out: tmax
Where a name gives a salt, the structure may show the parent alone.
QUANTITY: tmax (h)
Answers are plain numbers, in h.

# tmax (compound: CC(C)c1cccc(C(C)C)c1NC(=O)NCC1(c2ccc(N(C)C)cc2)CCCC1 [ATR-101, hydrochloride] ) is 2.75

====

- EXPERIMENTAL DETAILS: Food and acidic beverage effect on bioavailability of ATR-101 tablets, 3-way crossover plasma PK study
- Assay type: in vivo, human
- MEASUREMENT CONTEXT: both sexes, human, plasma, po, 500 mg, Treatment C (fasting with acidic beverage), single oral 500 mg; Mean; read-out: Cmax
Where a name gives a salt, the structure may show the parent alone.
QUANTITY: Cmax (ng/mL)
One number for each entry, in ng/mL.

# Cmax (compound: CC(C)c1cccc(C(C)C)c1NC(=O)NCC1(c2ccc(N(C)C)cc2)CCCC1 [ATR-101, hydrochloride] ) is 728

====

- EXPERIMENTAL DETAILS: Food and acidic beverage effect on bioavailability of ATR-101 tablets, 3-way crossover plasma PK study
- Assay type: in vivo, human
- MEASUREMENT CONTEXT: both sexes, human, plasma, po, 500 mg, Treatment A (fasting with water), single oral 500 mg; Mean
Counter-ions that a name gives are not always drawn.
QUANTITY: half-life (h)
Answers are plain numbers, in h.

# half-life (compound: CC(C)c1cccc(C(C)C)c1NC(=O)NCC1(c2ccc(N(C)C)cc2)CCCC1 [ATR-101, hydrochloride] ) is 17.9

====

- EXPERIMENTAL DETAILS: Food and acidic beverage effect on bioavailability of ATR-101 tablets, 3-way crossover plasma PK study
- Type: in vivo, human
- MEASUREMENT CONTEXT: both sexes, human, plasma, po, 500 mg, Treatment C (fasting with acidic beverage), single oral 500 mg; Geometric Mean; read-out: AUC0-t
Structures can show the parent of a compound that is named as a salt.
QUANTITY: AUC0-t (ng·h/mL)
Give bare numbers, in ng·h/mL.

# AUC0-t (compound: CC(C)c1cccc(C(C)C)c1NC(=O)NCC1(c2ccc(N(C)C)cc2)CCCC1 [ATR-101, hydrochloride] ) is 3340
